The reported numbers originate from patent US20050256103A1.

For each of the molecules below, state its IC50.
Molecular target: 5-HT1A receptor (Sus scrofa)
Construct: Swine hippocampus was homogenized in a 50 mM Tris-Hcl buffer; from tissue; host or cells: swine hippocampus, membrane fraction
Sequence (A0A4X1UTF5 1-422): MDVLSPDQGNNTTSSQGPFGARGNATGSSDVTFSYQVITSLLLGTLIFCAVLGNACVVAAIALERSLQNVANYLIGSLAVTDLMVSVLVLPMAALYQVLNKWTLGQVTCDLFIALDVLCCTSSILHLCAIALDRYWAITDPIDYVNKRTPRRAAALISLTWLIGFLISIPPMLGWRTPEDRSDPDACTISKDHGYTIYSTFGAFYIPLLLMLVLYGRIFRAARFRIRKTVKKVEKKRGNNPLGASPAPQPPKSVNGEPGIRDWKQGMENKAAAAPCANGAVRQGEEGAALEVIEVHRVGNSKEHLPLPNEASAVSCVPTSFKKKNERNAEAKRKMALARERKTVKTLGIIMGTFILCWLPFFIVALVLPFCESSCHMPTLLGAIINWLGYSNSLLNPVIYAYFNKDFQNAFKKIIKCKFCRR
Test: Affinity for serotonin 1A receptor: inhibition of [3H]MPPF binding in swine hippocampal membrane fraction
Conditions: [3H]MPPF 0.5 nM, swine hippocampal membrane, receptor in low affinity (G-protein non-binding, Gpp(NH)p 1 mM) state, 37°C 30 min; read-out: Low affinity IC50
Numeric answer only, unit pM assumed.

Entry under review: CNC(=O)c1ccc2ccn(C3CCN(CCc4cc5c(cc4OC)CCC(=O)N5C)CC3)c2c1 [Compound 58] . Reported IC50? 390

# repeat for COc1cc2c(cc1CCN1CCC(n3ccc4ccc(C(N)=O)cc43)CC1)C(O)CC2 (centres unmarked) [Compound 50] 210

# repeat for COc1cc2c(cc1CCN1CCC(n3ccc4ccc(C(N)=O)cc43)CC1)C(=O)N(C)CC2 [Compound 33] 120

# repeat for COc1ccc2c(c1CCN1CCC(n3ccc4ccc(C(N)=O)cc43)CC1)CCC2=O [Compound 25] 160

# repeat for COc1cc2oc(C)nc2cc1CCN1CCC(n2ccc3ccc(C(N)=O)cc32)CC1 [Compound 4] 150

# repeat for COc1cc2c(cc1CCN1CCC(n3ccc4ccc(C(N)=O)cc43)CC1)C(=O)CC2 [Compound 26] 200

# repeat for COc1ccc2sc(C)nc2c1CCN1CCC(n2ccc3ccc(C(N)=O)cc32)CC1 [Compound 27] 260

# repeat for COc1cc2nc(C)sc2cc1CCN1CCC(n2ccc3ccc(C(N)=O)cc32)CC1 [Compound 28] 190
